test system: HOP-18 NSCLC; assay: NCI tumour cell line growth inhibition, 48 h
ASSAY ENDPOINT: TGI

# COMPOUND, TARGET UNDER TEST, VALUE MEASURED
data = [
    ("COC(=O)C(C(=O)C(N)=O)c1csc(-n2nc(-c3ccccc3)cc2-c2ccccc2)n1 (centres undefined)", "HOP-18 NSCLC", "> 31.6 µM"),
    ("C/C(=N\\NS(=O)(=O)c1ccc([N+](=O)[O-])cc1)c1ccc[n+]([O-])n1", "HOP-18 NSCLC", "68.2 µM"),
    ("O=S1(=O)c2ccccc2N=C(c2ccccc2Cl)CC1c1ccc(F)cc1 (centres undefined)", "HOP-18 NSCLC", "29.3 µM"),
    ("COc1ccc2c([nH]c3c(O)c(-c4c(C)cc5c([nH]c6c(CC=C(C)C)c(OC)ccc65)c4O)c(C)cc32)c1CC=C(C)C", "HOP-18 NSCLC", "> 100 µM"),
    ("S=c1nc[nH]c2c1ncn2C1CCCO1 (centres undefined)", "HOP-18 NSCLC", "> 100 µM"),
    ("CC1OC(=O)C(C(C)C)NC(=O)C(C(C)C)OC(=O)C(C(C)C)NC(=O)C(C)OC(=O)C(C(C)C)NC(=O)C(C(C)C)OC(=O)C(C(C)C)NC(=O)C(C)OC(=O)C(C(C)C)NC(=O)C(C(C)C)OC(=O)C(C(C)C)NC1=O (centres undefined)", "HOP-18 NSCLC", "0.0539 µM"),
    ("CC(C)[Si](OCC1CC(C#N)OC(C)(C)O1)(C(C)C)C(C)C (centres undefined)", "HOP-18 NSCLC", "> 100 µM"),
    ("[CH3][Sn]1([CH3])[O]CC(COc2cc(Cl)c(Cl)cc2Cl)[O]1 (centres undefined)", "HOP-18 NSCLC", "> 100 µM"),
    ("O=c1c2ccccc2nc(-c2ccccc2)n1NC(=S)Nc1cccc(Cl)c1", "HOP-18 NSCLC", "> 100 µM"),
]
